Tested on: A2780
assayOverview: Cytotoxicity against human A2780 cells by MTT assay
Assay type: functional, cell-based
resultType: IC50 (µM)
Just the number please, in µM, no unit attached.

# IC50 of CO[C@]1(CC[C@@H](C)CO)O[C@H]2C[C@H]3[C@@H]4CCC5C[C@@H](O[C@H]6O[C@H](CO)[C@@H](O)[C@H](O)[C@H]6O[C@@H]6O[C@@H](C)[C@H](O)[C@@H](O)[C@H]6O)CC[C@]5(C)[C@H]4CC[C@]3(C)[C@@]2(O)[C@@H]1C (some centres not stated) = 7.96
